- testedSystem: ATP-dependent translocase ABCB1 (MDR1) (Homo sapiens, UniProt P08183)
- Sequence (P08183 whole entry): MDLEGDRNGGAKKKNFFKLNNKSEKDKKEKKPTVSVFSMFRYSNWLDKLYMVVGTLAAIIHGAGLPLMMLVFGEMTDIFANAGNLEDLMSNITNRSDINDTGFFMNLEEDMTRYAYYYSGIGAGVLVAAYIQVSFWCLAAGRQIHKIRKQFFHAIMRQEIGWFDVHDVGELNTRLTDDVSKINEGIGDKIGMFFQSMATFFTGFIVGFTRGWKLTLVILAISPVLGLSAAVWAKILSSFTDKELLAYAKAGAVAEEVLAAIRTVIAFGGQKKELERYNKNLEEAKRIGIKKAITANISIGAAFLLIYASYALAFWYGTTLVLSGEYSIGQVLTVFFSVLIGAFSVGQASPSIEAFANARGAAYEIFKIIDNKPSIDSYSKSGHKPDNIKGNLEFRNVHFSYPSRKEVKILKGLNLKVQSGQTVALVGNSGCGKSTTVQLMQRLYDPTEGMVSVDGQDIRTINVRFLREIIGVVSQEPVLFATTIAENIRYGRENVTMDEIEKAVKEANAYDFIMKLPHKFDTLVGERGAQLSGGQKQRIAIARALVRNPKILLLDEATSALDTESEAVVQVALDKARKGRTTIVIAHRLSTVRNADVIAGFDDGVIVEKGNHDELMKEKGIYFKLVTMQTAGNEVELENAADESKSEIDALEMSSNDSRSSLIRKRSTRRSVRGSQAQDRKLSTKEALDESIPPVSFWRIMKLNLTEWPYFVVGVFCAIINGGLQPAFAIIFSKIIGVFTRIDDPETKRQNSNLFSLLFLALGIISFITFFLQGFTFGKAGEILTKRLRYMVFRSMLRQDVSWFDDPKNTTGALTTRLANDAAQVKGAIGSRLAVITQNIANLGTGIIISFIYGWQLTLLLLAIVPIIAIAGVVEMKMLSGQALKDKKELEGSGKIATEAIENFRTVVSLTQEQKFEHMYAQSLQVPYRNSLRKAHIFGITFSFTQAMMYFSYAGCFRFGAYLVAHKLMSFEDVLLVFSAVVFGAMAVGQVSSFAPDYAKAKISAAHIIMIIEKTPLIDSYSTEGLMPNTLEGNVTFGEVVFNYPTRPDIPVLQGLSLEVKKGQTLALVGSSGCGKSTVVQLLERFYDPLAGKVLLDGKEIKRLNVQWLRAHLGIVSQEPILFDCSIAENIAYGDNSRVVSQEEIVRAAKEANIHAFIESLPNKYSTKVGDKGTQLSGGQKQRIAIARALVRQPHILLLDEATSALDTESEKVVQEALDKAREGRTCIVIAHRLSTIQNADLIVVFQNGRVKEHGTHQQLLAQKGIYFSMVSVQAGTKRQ
- assayInfo: in vitro
- conditionParameters: dog, MDCK-MDR1
- Description: Ratio of apparent permeability from basolateral to apical side over apical to basolateral side determined in MDR1-MDCKII cells
Could you mark each record rule met if its efflux ratio falls strictly under 3, and rule not met if it equals or exceeds it?

| compound | classLabel |
| --- | --- |
| CC[C@@]1([C@@H]2O[C@@H]([C@H]3O[C@@](O)(CO)[C@H](C)C[C@@H]3C)C[C@@H]2C)CC[C@H]([C@]2(C)CC[C@]3(C[C@H](O)[C@@H](C)[C@@H]([C@@H](C)[C@@H](OC)[C@H](C)C(=O)O)O3)O2)O1 | rule met |
| CN/C(=N/CCSCc1nc[nH]c1C)NC#N | rule met |
| CN(C)C(=O)C(CCN1CCC(O)(c2ccc(Cl)cc2)CC1)(c1ccccc1)c1ccccc1 [LOPERAMIDE] | rule not met |
| C[C@]12CC[C@H]3[C@@H](CCC4=CC(=O)CC[C@@]43C)[C@@H]1CC[C@@H]2O | rule met |
| Cc1ncc2n1-c1ccc(Cl)cc1C(c1ccccc1F)=NC2 | rule met |
| CCOc1ccc(-c2nc3cc(-c4nc5cc(N6CCN(C)CC6)ccc5[nH]4)ccc3[nH]2)cc1 | rule not met |
| COc1cc2c(c(OC)c1OC)-c1ccc(OC)c(=O)cc1[C@@H](NC(C)=O)CC2 | rule not met |
| CN(C)C(=O)Oc1ccc[n+](C)c1 | rule met |
| CN(C)C(=O)Oc1cccc([N+](C)(C)C)c1.[Br-] [NEOSTIGMINE BROMIDE] | rule met |

---

- testedSystem: UniProt P08183
- assayInfo: in vitro
- conditionParameters: dog, MDCK-MDR1
- Description: Apparent permeability (Papp) from apical to basolateral side determined in MDR1-MDCKII cells
Readings of Papp A→B for the listed compounds

| compound | Papp A→B / ×10⁻⁶ cm/s |
| --- | --- |
| CN(C)C(=O)C(CCN1CCC(O)(c2ccc(Cl)cc2)CC1)(c1ccccc1)c1ccccc1 [LOPERAMIDE] | 9.98 |
| CC[C@@]1([C@@H]2O[C@@H]([C@H]3O[C@@](O)(CO)[C@H](C)C[C@@H]3C)C[C@@H]2C)CC[C@H]([C@]2(C)CC[C@]3(C[C@H](O)[C@@H](C)[C@@H]([C@@H](C)[C@@H](OC)[C@H](C)C(=O)O)O3)O2)O1 | 10.2 |
| CN(C)C(=O)Oc1cccc([N+](C)(C)C)c1.[Br-] [NEOSTIGMINE BROMIDE] | 0.758 |
| C[C@]12CC[C@H]3[C@@H](CCC4=CC(=O)CC[C@@]43C)[C@@H]1CC[C@@H]2O | 91.6 |
| Cc1ncc2n1-c1ccc(Cl)cc1C(c1ccccc1F)=NC2 | 70.1 |
| CCOc1ccc(-c2nc3cc(-c4nc5cc(N6CCN(C)CC6)ccc5[nH]4)ccc3[nH]2)cc1 | 0.335 |
| CN(C)C(=O)Oc1ccc[n+](C)c1 | 1.02 |
| CN/C(=N/CCSCc1nc[nH]c1C)NC#N | 1.23 |

---

- testedSystem: ATP-dependent translocase ABCB1 (MDR1) (Homo sapiens)
- assayInfo: in vitro
- conditionParameters: dog, MDCK-MDR1, Papp
Starred links: 1 amine or outer side, 2 acyl side, 3 side chain; linkers in the order of their positions; H or OH if unused. Positions of bridges follow the written chain, without caps; N, C: chain ends. Non-standard residues stand in square brackets, D forms with d. Residues, ends and D or L forms follow the SMILES beside them. Chains are numbered I, II in the order given. Actinocin(9to1) = Cc1c2oc3c(C)ccc(C(=O)[*:1])c3nc-2c(C(=O)[*:2])c(N)c1=O; NMeV = CN[C@H](C(=O)O)C(C)C; Sar = CNCC(=O)O

| compound | testedSystem | inequalityOperator | Papp A→B, ×10⁻⁶ cm/s |
| --- | --- | --- | --- |
| COC(=O)Nc1nc2ccc(C(=O)c3ccccc3)cc2[nH]1 | ATP-dependent translocase ABCB1 (MDR1) (Homo sapiens) | = | 71.4 |
| CCN(CC)CCCC(C)Nc1ccnc2cc(Cl)ccc12 (stereo unspecified) | ATP-dependent translocase ABCB1 (MDR1) (Homo sapiens) | = | 4.49 |
| CN(C)CCCN1c2ccccc2Sc2ccc(Cl)cc21 | ATP-dependent translocase ABCB1 (MDR1) (Homo sapiens) | = | 43.8 |
| NC12CC3CC(CC(C3)C1)C2 | ATP-dependent translocase ABCB1 (MDR1) (Homo sapiens) | = | 18.6 |
| CCC1=C[C@@H]2CN(C1)Cc1c([nH]c3ccccc13)[C@@](C(=O)OC)(c1cc3c(cc1OC)N(C)[C@H]1[C@@](O)(C(=O)OC)[C@H](OC(C)=O)[C@]4(CC)C=CCN5CC[C@]31[C@@H]54)C2 | ATP-dependent translocase ABCB1 (MDR1) (Homo sapiens) | = | 0.252 |
| CC(=O)Nc1ccc(OCC(O)CNC(C)C)cc1 (stereo unspecified) | ATP-dependent translocase ABCB1 (MDR1) (Homo sapiens) | = | 1.24 |
| CCC(C)n1ncn(-c2ccc(N3CCN(c4ccc(OCC5COC(Cn6cncn6)(c6ccc(Cl)cc6Cl)O5)cc4)CC3)cc2)c1=O (stereo unspecified) | ATP-dependent translocase ABCB1 (MDR1) (Homo sapiens) | = | 57.1 |
| CN(Cc1cnc2nc(N)nc(N)c2n1)c1ccc(C(=O)N[C@@H](CCC(=O)O)C(=O)O)cc1 [METHOTREXATE] | ATP-dependent translocase ABCB1 (MDR1) (Homo sapiens) | = | 1.05 |
| CC[C@H]1OC(=O)[C@H](C)[C@@H](O[C@H]2C[C@@](C)(OC)[C@@H](O)[C@H](C)O2)[C@H](C)[C@@H](O[C@@H]2O[C@H](C)C[C@H](N(C)C)[C@H]2O)[C@](C)(O)C[C@@H](C)C(=O)[C@H](C)[C@@H](O)[C@]1(C)O | ATP-dependent translocase ABCB1 (MDR1) (Homo sapiens) | = | 0.094 |
| COc1cccc2c1C(=O)c1c(O)c3c(c(O)c1C2=O)C[C@@](O)(C(C)=O)C[C@@H]3O[C@H]1C[C@H](N)[C@H](O)[C@H](C)O1 | ATP-dependent translocase ABCB1 (MDR1) (Homo sapiens) | = | 0.547 |
| Cc1c2oc3c(C)ccc(C(=O)N[C@@H]4C(=O)N[C@H](C(C)C)C(=O)N5CCC[C@H]5C(=O)N(C)CC(=O)N(C)[C@@H](C(C)C)C(=O)O[C@@H]4C)c3nc-2c(C(=O)N[C@@H]2C(=O)N[C@H](C(C)C)C(=O)N3CCC[C@H]3C(=O)N(C)CC(=O)N(C)[C@@H](C(C)C)C(=O)O[C@@H]2C)c(N)c1=O [DACTINOMYCIN] (I: T[dV]P[Sar][NMeV] / II: T[dV]P[Sar][NMeV]; ester I:1-I:C, II:1-II:C; linker I:N-II:N via Actinocin(9to1)) | ATP-dependent translocase ABCB1 (MDR1) (Homo sapiens) | < | 0.021 |
| CNS(=O)(=O)Cc1ccc2[nH]cc(CCN(C)C)c2c1 | ATP-dependent translocase ABCB1 (MDR1) (Homo sapiens) | = | 0.953 |
| CCOC(=O)C1=C(C)NC(C)=C(C(=O)OC)C1c1cccc([N+](=O)[O-])c1 (stereo unspecified) | ATP-dependent translocase ABCB1 (MDR1) (Homo sapiens) | = | 60.4 |
| C[C@@H]1C[C@H]2[C@@H]3CCC4=CC(=O)C=C[C@]4(C)[C@@]3(F)[C@@H](O)C[C@]2(C)[C@@]1(O)C(=O)CO | ATP-dependent translocase ABCB1 (MDR1) (Homo sapiens) | = | 4.35 |
| CC[C@H]1OC(=O)[C@H](C)[C@@H](O[C@H]2C[C@@](C)(OC)[C@@H](O)[C@H](C)O2)[C@H](C)[C@@H](O[C@@H]2O[C@H](C)C[C@H](N(C)C)[C@H]2O)[C@](C)(OC)C[C@@H](C)C(=O)[C@H](C)[C@@H](O)[C@]1(C)O | ATP-dependent translocase ABCB1 (MDR1) (Homo sapiens) | = | 1.08 |
| CN(C)CCC(c1ccc(Cl)cc1)c1ccccn1 (racemic) | ATP-dependent translocase ABCB1 (MDR1) (Homo sapiens) | = | 56.2 |
